# SYSTEM_TESTED: VirB8-like protein from Rickettsia typhi (Rickettsia typhi)
# PROCEDURE_DETAILS: BLI (Octet); biotinylated target on streptavidin sensors, miniprotein as analyte
pKd: −log10 of the molar value.
RECORDED_ENDPOINT: pKd

• VirB8_mb (designed binder) MSHHHHHHHHSENLYFQSGGGNAEEITEKATLVGIEAWLLAKDEEQKKKVRTLNRQVKKLLQQNDLDQAKRVLDQLKSVLEDLKS = 9.30
